Data provenance is paper PMC10999543.

Some compounds, each annotated with its measured z-scoreMRSA+ rep 1.
system: intracellular MRSA; format: cell-based, Staphylococcus aureus; settings: PKIS compound screen, MRSA-infected HeLa cells, replicate 1; note: test concentration or dose not given here
VALUE TYPE: z-scoreMRSA+ rep 1

COMPOUND: Cc1ccc(NC(=O)c2ccnc(N3CCN(C)CC3)c2)cc1-c1ccc(C(=O)NCC2CC2)cc1 [GW775604X]
VALUE TYPE: z-scoreMRSA+ rep 1
RESULT VALUE: 1.10
//
COMPOUND: O=c1cc(N2CCOCC2)nc2n(Cc3cccc(Cl)c3Cl)c(C3CC3)nn12 [GSK2358994A]
VALUE TYPE: z-scoreMRSA+ rep 1
RESULT VALUE: -1.78
//
COMPOUND: c1ccc(-c2cc3ccncc3cc2OC2CCNCC2)cc1 [GSK1122999D]
VALUE TYPE: z-scoreMRSA+ rep 1
RESULT VALUE: -0.50
//
COMPOUND: NC(=O)c1cccc(Nc2nccc(Nc3ccc(Oc4cccc(Cl)c4)c(Cl)c3)n2)c1 [GW659008A]
VALUE TYPE: z-scoreMRSA+ rep 1
RESULT VALUE: -2.76

---

tested on: HeLa cells; test: Compound screen by flow cytometry: HeLa cell count as surrogate readout of cell viability (z-scoreHeLa); assay type: cell-based, human; conditions: PKIS compound screen, replicate 1; note: test concentration or dose not given here
z-scoreHeLa rep 1 vs -0.1: at or above is Condition met, below is Condition not met.

MOLECULE: COC(=O)c1ccc2c(c1)C(=Cc1cc(Br)c(O)c(Br)c1)C(=O)N2 [GW405841X]
ANSWER LABEL: Condition met

MOLECULE: COC(=O)c1cccc(NC(=O)NC2CCN(c3ccnc(Nc4ccc(OC)cc4)n3)C2)c1 (stereo not shown) [GSK1379746A]
ANSWER LABEL: Condition not met

MOLECULE: O=C(Nc1ccccc1F)NC1CCN(c2ccnc(Nc3ccc(F)cc3)n2)C1 (stereo not shown) [GSK1379722A]
ANSWER LABEL: Condition met

MOLECULE: Cn1cc(-c2ccc3c(c2)CCN3C(=O)Cc2cccc(F)c2)c2c(N)ncnc21 [GSK2603358A]
ANSWER LABEL: Condition not met

MOLECULE: c1ccc(COc2ccc(Nc3ncnc4ccc(-c5ccco5)cc34)cc2)cc1 [GW284372X]
ANSWER LABEL: Condition not met

MOLECULE: Cc1ccc(C(=O)Nc2ccc(Nc3ccnc4cc(-c5nccs5)ccc34)cc2O)cc1 [GW494702A]
ANSWER LABEL: Condition met

MOLECULE: Cc1ccc(NC(=O)c2ccnc(N3CCN(C)CC3)c2)cc1-c1ccc(C(=O)NCC2CC2)cc1 [GW775604X]
ANSWER LABEL: Condition not met

MOLECULE: CCn1c(-c2nonc2N)nc2c(C#CC(C)(C)O)nc(OCCNC)cc21 [GSK949675A]
ANSWER LABEL: Condition met

MOLECULE: Cc1cccc(-c2nc(Nc3ccc4ncsc4c3)c3ccccc3n2)n1 [GW867588X]
ANSWER LABEL: Condition met

MOLECULE: CC(C)c1nc(-c2cccc(NS(=O)(=O)c3ccccc3)c2)c(-c2ccnc(Nc3ccc4c(c3)CN(C)CC4)n2)s1 [GSK1649598A]
ANSWER LABEL: Condition not met

MOLECULE: Cc1n[nH]c2ccc(-c3cc(OC[C@@H](N)Cc4ccccc4)cnc3-c3ccoc3)cc12 [GSK507358A]
ANSWER LABEL: Condition met

MOLECULE: Fc1cc(Cl)ccc1Nc1ccnc2cc(-c3ccc(CN4CCOCC4)o3)ccc12 [GW560109X]
ANSWER LABEL: Condition not met

MOLECULE: CC(C)c1nc(-c2ccc(F)c(NS(=O)(=O)c3c(F)cccc3F)c2)c(-c2ccnc(Nc3ccc(N4CCOCC4)nc3)n2)s1 [GSK1804250A]
ANSWER LABEL: Condition not met

MOLECULE: NS(=O)(=O)c1ccc(N/N=C2\C(=O)Nc3ccc(Cl)cc32)cc1 [GW280670X]
ANSWER LABEL: Condition not met

MOLECULE: Cc1ccc(S(=O)(=O)Nc2ccc(Nc3nccc(Nc4cccc5[nH]ncc45)n3)cc2)cc1 [GSK581271A]
ANSWER LABEL: Condition met

MOLECULE: COc1ccc2ncnc(Nc3ccc(OCc4ccccc4)cc3)c2c1 [GI261520A]
ANSWER LABEL: Condition met

MOLECULE: Cc1cc(Cl)cc2c1NC(=O)C2=NNc1ccc(S(N)(=O)=O)cc1 [GW279320X]
ANSWER LABEL: Condition met

MOLECULE: COC(=O)c1cccc(NC(=O)NC2CCN(c3ccnc(NCc4ccc(F)cc4)n3)CC2)c1 [GSK1379860A]
ANSWER LABEL: Condition not met

MOLECULE: Cc1nn2c(=O)cc(N3CCOCC3)nc2n1Cc1cccc(Cl)c1Cl [GSK2342769A]
ANSWER LABEL: Condition not met

MOLECULE: CN(C)c1cc2c(Nc3ccc4c(cnn4Cc4ccccc4)c3)ncnc2cn1 [GW282974X]
ANSWER LABEL: Condition met

MOLECULE: Cc1cccc(-c2nc(Nc3cccc(C(N)=O)c3)c3ccccc3n2)n1 [GW876019X]
ANSWER LABEL: Condition not met

MOLECULE: O=C(NC1CCN(c2ccnc(Nc3ccc(F)cc3)n2)C1)c1cc2ccccc2s1 (stereo not shown) [GSK1379716A]
ANSWER LABEL: Condition not met

MOLECULE: COc1cc(N2CCN(C(C)C)CC2)ccc1Nc1nc(Nc2ccc(F)cc2C(N)=O)c2cc[nH]c2n1 [GSK1220512A]
ANSWER LABEL: Condition not met

MOLECULE: Cn1cncc1-c1cc2c(Nc3ccc(OCc4ccccc4)cc3)ncnc2cn1 [GW281179X]
ANSWER LABEL: Condition not met

MOLECULE: CN1C(=O)C(Nc2ccccc2)=C(c2ccccc2)C1=O [SB-300079]
ANSWER LABEL: Condition not met

MOLECULE: O=S(=O)(CCNCc1ccc(-c2ccc3ncnc(Nc4ccc(OCc5cccc(F)c5)c(Cl)c4)c3c2)o1)c1ccccc1 [GW633459A]
ANSWER LABEL: Condition met

MOLECULE: CNC(=O)c1cc(-c2ccc(F)cc2)cc(-c2ccc(S(=O)(=O)N3CCCC3)cc2)c1N [GSK635416A]
ANSWER LABEL: Condition not met

MOLECULE: c1ccc(Oc2ccc(Nc3ccnc4cc(-c5ccc(CNCCN6CCOCC6)o5)ccc34)cc2)nc1 [GW567145X]
ANSWER LABEL: Condition met

MOLECULE: O=C(Nc1ccccc1F)NC1CCN(c2ccnc(Nc3ccc(F)cc3)n2)CC1 [GSK1379800A]
ANSWER LABEL: Condition met

MOLECULE: COc1cc(Nc2nccc(N3CCC(NC(=O)Nc4ccc5c(c4)OCO5)C3)n2)cc(OC)c1OC (stereo not shown) [GSK1379766A]
ANSWER LABEL: Condition met

MOLECULE: COc1cc(/C=N/Nc2ncnc3[nH]ncc23)ccc1O [GW578748X]
ANSWER LABEL: Condition not met

MOLECULE: Cn1cc(C=C2C(=O)Nc3cccnc32)c2ccccc21 [GW441756X]
ANSWER LABEL: Condition met

MOLECULE: c1ccc(Cn2ncc3cc(Nc4ncnc5ccccc45)ccc32)cc1 [GW273749A]
ANSWER LABEL: Condition met

MOLECULE: CN(C)c1cc2c(Nc3ccc4nc(Cc5ccccc5)[nH]c4c3)ncnc2cn1 [GW301888X]
ANSWER LABEL: Condition met

---

tested on: HeLa cells; test: Compound screen by flow cytometry: HeLa cell count as surrogate readout of cell viability (z-scoreHeLa); type: cell-based, human; conditions: PKIS compound screen, HeLa cell count, replicate 1; note: test concentration or dose not given here
Reported z-scoreHeLa rep 1 maps to class as: low class: < -0.3; middle class: ≥ -0.3 and < 0.9; high class: ≥ 0.9

COMPOUND: CN1CCC(n2cnc(-c3ccc(F)cc3)c2-c2ccnc(Nc3ccccc3)n2)CC1
ASSAY TARGET: HeLa cells
ANSWER LABEL: middle class
//
COMPOUND: OCCCNc1nccc(-c2c(-c3ccc(F)cc3)nn3cc(C(F)(F)F)ccc23)n1 [GW569293E]
ASSAY TARGET: HeLa cells
ANSWER LABEL: low class
//
COMPOUND: O=C(NC1CCN(c2ccnc(Nc3ccc(F)cc3)n2)C1)c1cc2ccccc2s1 (centres unmarked) [GSK1379716A]
ASSAY TARGET: HeLa cells
ANSWER LABEL: middle class
//
COMPOUND: CS(=O)(=O)CCNCc1ccc(-c2ccc3ncnc(Nc4ccc(OCc5ccccc5)c(Cl)c4)c3c2)o1 [GW574783B]
ASSAY TARGET: HeLa cells
ANSWER LABEL: low class
//
COMPOUND: Fc1cc(Cl)ccc1Nc1ccnc2cc(-c3ccc(CN4CCSCC4)o3)ccc12 [GW560106X]
ASSAY TARGET: HeLa cells
ANSWER LABEL: high class
//
COMPOUND: Cc1cc(-c2ccc3c(c2)CC[C@@H](N[C@@H](C)c2ccccc2)C3)cnc1N [GW412617A]
ASSAY TARGET: HeLa cells
ANSWER LABEL: high class
//
COMPOUND: COc1cc2nccc(Nc3cccc(Oc4ccccc4)c3)c2cc1OC [GW284543A]
ASSAY TARGET: HeLa cells
ANSWER LABEL: high class
//
COMPOUND: Fc1ccc(-c2ncn(C3CCNCC3)c2-c2ccnc(Oc3ccc(F)c(F)c3)n2)cc1
ASSAY TARGET: HeLa cells
ANSWER LABEL: low class
//
COMPOUND: Cc1ccccc1CC(=O)N1CCc2cc(-c3cn(C)c4ncnc(N)c34)ccc21 [GSK2603346A]
ASSAY TARGET: HeLa cells
ANSWER LABEL: middle class
//
COMPOUND: NS(=O)(=O)c1cccc(-c2cc3ccncc3cc2OCc2ccccc2)c1 [GSK980961A]
ASSAY TARGET: HeLa cells
ANSWER LABEL: low class
//
COMPOUND: CCS(=O)(=O)c1ccc(OC)c(Nc2ncc(-c3cccc(-c4ccccc4F)c3)o2)c1 [GW678313X]
ASSAY TARGET: HeLa cells
ANSWER LABEL: middle class
//
COMPOUND: COc1cc(Nc2nccc(N3CCC(NC(=O)Nc4ccc5c(c4)OCO5)C3)n2)cc(OC)c1OC (centres unmarked) [GSK1379766A]
ASSAY TARGET: HeLa cells
ANSWER LABEL: middle class
//
COMPOUND: c1ccc(Oc2ccc(Nc3ccnc4cc(-c5ccc(CN6CCNCC6)o5)ccc34)cc2)nc1 [GW567142A]
ASSAY TARGET: HeLa cells
ANSWER LABEL: high class
//
COMPOUND: O=C(Nc1ccccc1F)NC1CCN(c2ccnc(Nc3ccc(F)cc3)n2)C1 (centres unmarked) [GSK1379722A]
ASSAY TARGET: HeLa cells
ANSWER LABEL: high class
//
COMPOUND: CCS(=O)(=O)c1ccc(OC)c(Nc2nccc(N(C)c3ccc4c(C)n[nH]c4c3)n2)c1 [GW654652C]
ASSAY TARGET: HeLa cells
ANSWER LABEL: middle class
//
COMPOUND: Cc1c2ccc(N(C)c3ccnc(Nc4cccc(S(N)(=O)=O)c4)n3)cc2nn1C [GW771127A]
ASSAY TARGET: HeLa cells
ANSWER LABEL: low class
//
COMPOUND: Cn1cncc1-c1cc2c(Nc3ccc(OCc4ccccc4)cc3)ncnc2cn1 [GW281179X]
ASSAY TARGET: HeLa cells
ANSWER LABEL: low class
